test: Cmax in albino Wistar rat at 5 mg/kg, iv up to 24 hrs by LC-MS/MS analysis; format: ADME, organism-based; design: dose 5 mg/kg, route intravenous; details: in vivo
OBSERVATION TYPE: Cmax (µM)
Reply with just the number (in µM).

What does the data say about its Cmax? Entry: `Cc1nc(NC2CCCC2)sc1-c1ccnc(Nc2ccc(N3CCOCC3)cn2)n1`
38.8

----------
Record form. Attribute: Ki. Fill in for each entry.
molecular target: Cyclin-dependent kinase 1/cyclin B1 (Homo sapiens, UniProt P06493); assay: Inhibition of CDK1/cyclin B (unknown origin) in presence of [gamma-33P]-ATP […]; conditions: read-out: Ki(app)
Sequence (P06493 whole entry): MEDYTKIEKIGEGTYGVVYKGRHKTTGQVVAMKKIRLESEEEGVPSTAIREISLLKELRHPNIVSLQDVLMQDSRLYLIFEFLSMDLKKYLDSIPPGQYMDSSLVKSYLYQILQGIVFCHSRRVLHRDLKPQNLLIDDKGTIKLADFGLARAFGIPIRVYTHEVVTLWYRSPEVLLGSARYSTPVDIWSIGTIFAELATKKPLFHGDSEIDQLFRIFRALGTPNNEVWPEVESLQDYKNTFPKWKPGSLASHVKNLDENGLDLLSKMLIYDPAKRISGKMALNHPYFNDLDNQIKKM
Sequence (P14635 whole entry, further chain): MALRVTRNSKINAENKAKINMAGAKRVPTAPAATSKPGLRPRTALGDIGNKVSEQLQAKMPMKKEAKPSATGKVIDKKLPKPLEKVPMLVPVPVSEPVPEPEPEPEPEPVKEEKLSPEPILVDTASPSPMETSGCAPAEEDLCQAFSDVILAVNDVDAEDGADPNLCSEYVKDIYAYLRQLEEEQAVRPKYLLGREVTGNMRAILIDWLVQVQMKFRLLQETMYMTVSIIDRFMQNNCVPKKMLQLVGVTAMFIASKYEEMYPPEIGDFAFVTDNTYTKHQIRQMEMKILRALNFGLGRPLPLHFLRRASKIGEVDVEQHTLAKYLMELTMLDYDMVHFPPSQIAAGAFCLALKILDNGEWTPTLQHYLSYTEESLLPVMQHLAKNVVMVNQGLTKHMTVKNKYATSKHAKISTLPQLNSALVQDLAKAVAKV

What does the data say about its Ki? Entry: `Cc1nc(NC(C)C)sc1-c1ccnc(Nc2ccc(N3CCOCC3)cn2)n1`
> 5 µM

What does the data say about its Ki? Entry: `Cc1nc(NC2CCCC2)sc1-c1nc(Nc2ccc(N3CCOCC3)cn2)ncc1F`
4.35 µM

What does the data say about its Ki? Entry: `Cc1nc(NC(C)C)sc1-c1ccnc(Nc2ccc(N3CCCNCC3)cn2)n1`
> 5 µM
